For each entry below, report its Percent cleavage value.
- SYSTEM_UNDER_TEST: AxCT mask27 EpCAM H90.2 L061 version 1
One number for each entry, in %.

Each protein below has a reported value. Please supply its Percent cleavage.
1. MMP-12 (protein) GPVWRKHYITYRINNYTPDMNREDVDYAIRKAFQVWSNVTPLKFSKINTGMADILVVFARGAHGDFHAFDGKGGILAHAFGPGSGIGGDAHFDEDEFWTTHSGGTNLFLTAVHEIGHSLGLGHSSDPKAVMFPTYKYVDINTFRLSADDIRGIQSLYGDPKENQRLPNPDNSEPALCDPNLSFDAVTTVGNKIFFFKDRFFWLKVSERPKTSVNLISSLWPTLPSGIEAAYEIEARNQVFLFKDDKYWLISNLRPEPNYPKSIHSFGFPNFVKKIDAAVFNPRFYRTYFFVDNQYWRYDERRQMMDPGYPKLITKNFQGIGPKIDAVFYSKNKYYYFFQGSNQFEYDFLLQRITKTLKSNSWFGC
2. Cathepsin G (protein) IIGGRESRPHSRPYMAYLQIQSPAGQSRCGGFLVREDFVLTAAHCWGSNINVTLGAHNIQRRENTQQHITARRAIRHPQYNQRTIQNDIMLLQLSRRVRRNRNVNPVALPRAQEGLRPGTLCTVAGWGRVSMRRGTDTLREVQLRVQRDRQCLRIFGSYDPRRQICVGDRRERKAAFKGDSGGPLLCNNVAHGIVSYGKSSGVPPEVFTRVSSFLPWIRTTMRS

# output
[64, 0]
